Hello, the source for this data is patent US8703963B2, in case you need it.

system: B. megaterium; assay: Kirby-Bauer agar disk diffusion; type: cell-based; settings: 20 μg on 6 mm disk, 24 h at 37° C., triplicate
result type: zone of growth inhibition, average diameter (mm)
Give a bare numeral; the unit mm is implied.

{"input smiles": "CSN1C(=O)OC[C@H]1C(C)C", "test value": 10}

Reported zone of growth inhibition, average diameter of `CSN1C(=O)OC[C@@H]1C(C)C` : 18

Reported zone of growth inhibition, average diameter of `CSN1C(=O)OC[C@@H]1c1ccccc1` : 18

Reported zone of growth inhibition, average diameter of `CSN1C(=O)OC[C@H]1c1ccccc1` : 20

###

tested on: B. globigii; experiment: Kirby-Bauer agar disk diffusion; type: cell-based; details: 20 μg on 6 mm disk, 24 h at 37° C., triplicate
result type: zone of growth inhibition, average diameter (mm)
Give a bare numeral; the unit mm is implied.

Completed entries (count: 3):
{"input smiles": "CSN1C(=O)OC[C@@H]1c1ccccc1", "subject of test": "B. globigii", "output unit": "mm", "test value": 15}
{"input smiles": "CSN1C(=O)OC[C@H]1c1ccccc1", "subject of test": "B. globigii", "output unit": "mm", "test value": 17}
{"input smiles": "CSN1C(=O)OC[C@@H]1C(C)C", "subject of test": "B. globigii", "output unit": "mm", "test value": 15}

Reported zone of growth inhibition, average diameter of `CSN1C(=O)OC[C@H]1C(C)C` : 17

###

Overview of recorded zone of growth inhibition, average diameter for various molecules
tested on: S. aureus 849 (ATCC 25923); test: Kirby-Bauer agar disk diffusion; settings: S. aureus 849 (ATCC 25923); 20 μg on 6 mm disk; 24 h at 37° C.; triplicate
Give a bare numeral; the unit mm is implied.

{"molecule": "CC1(C)S[C@@H]2[C@H](NC(=O)Cc3ccccc3)C(=O)N2[C@H]1C(=O)O [Pen G, penicillin G, reference compound]", "output unit": "mm", "test value": 33}
{"molecule": "COC1C(=O)N(SC)C1c1ccccc1 (racemic) [Lac, reference compound]", "output unit": "mm", "test value": 25}
{"molecule": "CCC(C)SN1CC(CCl)OC1=O (stereo not shown)", "output unit": "mm", "test value": 19}
{"molecule": "CSN1C(=O)OC[C@H]1c1ccccc1", "output unit": "mm", "test value": 29}
{"molecule": "CSN1C(=O)OC[C@@H]1C(C)C", "output unit": "mm", "test value": 20}

Reported zone of growth inhibition, average diameter of `CSN1C(=O)OC[C@@H]1c1ccccc1` : 30

Reported zone of growth inhibition, average diameter of `CSN1C(=O)OC[C@H]1C(C)C` : 21

###

tested on: Bacillus anthracis (Sterne strain); assay type: cell-based; conditions: B. anthracis (Sterne strain); 20 μg on 6 mm disk; 24 h at 37° C.; triplicate
Overview of recorded zone of growth inhibition, average diameter for various molecules
Just the number plus its unit, please.

Completed entries (count: 3):
{"input smiles": "CSN1C(=O)OC[C@@H]1c1ccccc1", "subject of test": "Bacillus anthracis (Sterne strain)", "test value": "23 mm"}
{"input smiles": "CSN1C(=O)OC[C@@H]1C(C)C", "subject of test": "Bacillus anthracis (Sterne strain)", "test value": "23 mm"}
{"input smiles": "CSN1C(=O)OC[C@H]1C(C)C", "subject of test": "Bacillus anthracis (Sterne strain)", "test value": "15 mm"}

Reported zone of growth inhibition, average diameter of `CSN1C(=O)OC[C@H]1c1ccccc1` : 23 mm
